Answer each item with its documented pKd.
- system-tested: HLA-B*08:01
- measurement-notes: IEDB peptide-MHC binding, purified MHC/direct/fluorescence; filed as Kd, often an IC50 or EC50 that approximates it; bounds were set here for any values at or beyond the usual limits of such assays
- measurement-setup: source organism: Mycobacterium tuberculosis str. Haarlem
pKd: −log10 of the molar value.

Data request: Provide the documented pKd with HLA-B*08:01 as the system for "IPAPGLGAL"
Data returned: ≤ 4.70

Data request: Query "AVFDSFVER" next
Data returned: ≤ 4.70

Data request: Query "VPRDRNGTF" next
Data returned: 6.20

---

- system-tested: HLA-B*53:01
- measurement-notes: IEDB peptide-MHC binding, purified MHC/competitive/radioactivity; filed as Kd, often an IC50 or EC50 that approximates it; bounds were set here for any values at or beyond the usual limits of such assays
- measurement-setup: source organism: Mammarenavirus guanaritoense
measurement-kind: Kd (nM)
Write it as a number; the unit nM goes unstated.

Data request: # get_value(readout='Kd', item= "CPMCCSKIL" )
Data returned: 62.9
